- experiment notes: Pharmacokinetic measurements of H3B-6527 capsules in patients (trial NCT02834780), plasma LC-MS/MS
- Type: in vivo, human
- cond: human, plasma, oral, 300 mg, 300 mg QD, fasted, Day 1; Table 6, actual times after QC; read-out: Half-life, geometric mean (CV%) (converted)
- Method: A description of the first in human clinical trial for H3B-6527 can be found at the ClinicalTrials.gov by searching for trial identifier NCT02834780. […] Blood samples are collected at the planned time points from each patient and centrifuged. […] The concentration data are then analyzed using Phoenix® WinNonlin software to obtain PK parameters. […]
metric: half-life (h)

- C=CC(=O)Nc1cc(N2CCN(CC)CC2)ccc1Nc1cc(N(C)C(=O)Nc2c(Cl)c(OC)cc(OC)c2Cl)ncn1: 2.52
